- System: Zymoseptoria tritici
- ASSAY: Test E: wheat leaf blotch, preventive spray on wheat seedlings
- PARTICULARS: 10 ppm; wheat leaf blotch; 100 = 100% disease control, 0 = no control
ATTRIBUTE_MEASURED: Test E rating (% disease control) (%)
Numbers only here, please. The scale is %.

Give Test E rating (% disease control) for CC(C)C(O)(Cn1cncn1)C1=NOC(c2ccc(Cl)cc2)C1 (single isomer, unassigned) [Compound 3]
0

Report Test E rating (% disease control) for Cn1nc(C(F)(F)F)cc1OCC1CC(C(O)(Cn2cncn2)C(C)(C)C)=NO1 (single isomer, unassigned) [Compound 47]
3

Please look at this compound and report its Test E rating (% disease control): OC(Cn1cncn1)(C1=NOC(c2ccc(-n3cc(Br)cn3)cc2)C1)c1ccc(Cl)cc1 (single isomer, unassigned) [Compound 5]
48

Give recorded Test E rating (% disease control). Cn1nc(C(F)(F)F)cc1OCC1CC(C(O)(Cn2cncn2)C(C)(C)C)=NO1 (single isomer, unassigned) [Compound 56]
0

Answer with reported Test E rating (% disease control) of CCCC(O)(Cn1cncn1)C1=NOC(c2ccc(Cl)cc2)C1 (single isomer, unassigned) [Compound 82]
0

Hello, please tell me recorded Test E rating (% disease control) for this one: OC(Cn1cncn1)(C1=NOC(CSc2ccccc2)C1)c1ccc(Cl)cc1 (single isomer, unassigned) [Compound 51]
1

Specify measured Test E rating (% disease control) for CC(C)(C)C(O)(Cn1cncn1)C1=NOC(COc2ncc(Cl)cn2)C1 (single isomer, unassigned) [Compound 100] .
0

* * *

- Tested on: Botrytis cinerea
- ASSAY: Test B: gray mold, preventive spray on tomato seedlings
- PARTICULARS: 50 ppm (asterisk); gray mold on tomato; 100 = 100% disease control, 0 = no control
Examples of molecules with documented Test B rating (% disease control) follow.
Form entry: enter the amount, then its unit.

> print(dat)
                                   molecule  result
1  CC(C)(C)C(O)(Cn1cncn1)C1=NOC(c2ccc(Cl)cc2)C1 (single isomer, unassigned) [Compound 132]     99%
2  OC(Cc1ccccc1)(Cn1cncn1)C1=NOC(c2ccc(Cl)cc2)C1 (single isomer, unassigned)    100%
3  OC(Cn1cncn1)(C1=NOC(c2c(F)cccc2F)C1)c1ccccc1 (mixture of isomers)      0%
4  OC(Cn1cncn1)(C1=NOC(c2ccc(Cl)cc2)C1)c1ccc(F)cc1F (single isomer, unassigned) [Compound 131]      0%
5  CCC(O)(Cn1cncn1)C1=NOC(c2ccc(Cl)cc2)C1 (mixture of isomers)      0%
6  CC1(c2ccc(Cl)cc2)CC(C(O)(Cn2cncn2)c2ccccc2)=NO1 (single isomer, unassigned) [Compound 210]      0%

From here, focus on the item given below.
Report Test B rating (% disease control) from Botrytis cinerea testing of CC(C)(C)C1CC(C(O)(Cn2cncn2)c2ccccc2)=NO1 (single isomer, unassigned) [Compound 125]
0%

* * *

In this section we review reported Test E rating (% disease control) values for a set of molecules.
- Test system: Zymoseptoria tritici
- ASSAY: Test E: wheat leaf blotch, preventive spray on wheat seedlings
- PARTICULARS: 10 ppm; wheat leaf blotch; 100 = 100% disease control, 0 = no control
Express your answer in %, writing the number without its unit.

> print(dat)
                                   molecule                 attribute.measured  recorded.number
1  CC(C)(C)C(O)(Cn1cncn1)C1=NOC(Cc2ccccc2)C1 (single isomer, unassigned) [Compound 87]  Test E rating (% disease control)                1
2  OC(Cn1cncn1)(C1=NOC(c2ccc(Br)cc2)C1)c1ccc(Cl)cc1 (single isomer, unassigned) [Compound 179]  Test E rating (% disease control)                0
3  OC(Cn1cncn1)(C1=NOC(c2ccc(Cl)cc2)C1)c1ccc(F)cc1 (single isomer, unassigned) [Compound 161]  Test E rating (% disease control)                0
4  CCC(C)(C)C(O)(Cn1cncn1)C1=NOC(Cc2ccc(C(F)(F)F)cc2)C1 (single isomer, unassigned) [Compound 20]  Test E rating (% disease control)               98
5  OC(Cn1cncn1)(C1=NOC(Cn2ccc(C(F)(F)F)n2)C1)c1ccc(Cl)cc1 (single isomer, unassigned) [Compound 195]  Test E rating (% disease control)                0

With those in mind, consider the next molecule.
Hello, please tell me recorded Test E rating (% disease control) for this one: CC(C)(C)C(O)(Cn1cncn1)C1=NOC(COc2ccc(OC(F)(F)F)cc2)C1 (single isomer, unassigned) [Compound 24]
0

* * *

- Tested on: Erysiphe graminis f sp. tritici
- ASSAY: Test G: wheat powdery mildew, preventive spray on wheat seedlings
- PARTICULARS: 10 ppm; wheat powdery mildew; 100 = 100% disease control, 0 = no control
Listing: Test G rating (% disease control) of selected molecules
Give just the numeric value; % need not be written.

Below: 5 molecules and their reported Test G rating (% disease control).
> print(dat)
                                   molecule                 attribute.measured  recorded.number
1  CC(C)(C)CC(O)(Cn1cncn1)C1=NOC(Cc2ccc(Cl)cc2)C1 (single isomer, unassigned) [Compound 206]  Test G rating (% disease control)               99
2  CC(C)(C)C(O)(Cn1cncn1)C1=NOC(COc2ccc(Br)cc2)C1 (single isomer, unassigned) [Compound 182]  Test G rating (% disease control)              100
3  CCC(C)(C)C(O)(Cn1cncn1)C1=NOC(COc2ccc(Br)cc2)C1 (single isomer, unassigned) [Compound 12]  Test G rating (% disease control)               96
4  CC(C)(C)C(O)(Cn1cncn1)C1=NOC(COc2ccc(Cl)nc2)C1 (single isomer, unassigned) [Compound 97]  Test G rating (% disease control)               94
5  OC(Cn1cncn1)(C1=NOC(Cn2ccc(-c3ccc(Cl)cc3)n2)C1)c1ccc(Cl)cc1 (single isomer, unassigned) [Compound 65]  Test G rating (% disease control)               98

Give Test G rating (% disease control) for OC(Cn1cncn1)(C1=NOC(c2ccc(C(F)(F)F)cc2)C1)c1ccc(Cl)cc1 (single isomer, unassigned) [Compound 146]
99

Tell us which Test G rating (% disease control) value is on record for OC(Cn1cncn1)(C1=NOC(Cc2ccc(-c3ccccc3)cc2)C1)c1ccc(Cl)cc1 (single isomer, unassigned) [Compound 205]
98

Item OC(Cn1cncn1)(C1=NOC(c2ccc(Cl)cc2)C1)c1ccc(Br)cc1 (single isomer, unassigned) [Compound 180] : provide Test G rating (% disease control)
100

Give the reported Test G rating (% disease control) for this molecule. CC(C)(C)C(O)(Cn1cncn1)C1=NOC(CSc2ccccc2)C1 (single isomer, unassigned) [Compound 73]
56

Report Test G rating (% disease control), nothing else, for this molecule: OC(Cn1cncn1)(C1=NOC(c2ccc(Cl)cc2)C1)C12CC3CC(CC(C3)C1)C2 (single isomer, unassigned) [Compound 39]
73

* * *

- System: Zymoseptoria tritici
- ASSAY: Test E: wheat leaf blotch, preventive spray on wheat seedlings
- PARTICULARS: 10 ppm test solution; 100 = 100% disease control, 0 = no control relative to controls
Test E disease control rating by entry:
Express your answer in %, writing the number without its unit.

> print(dat)
                                   compound             attribute.measured  readout.unit  recorded.number
1  CC1(C(O)(Cn2cncn2)C2=NOC(COc3ccc(Cl)cc3)C2)CC1 (single isomer, unassigned) [Compound 224]  Test E disease control rating             %               30
2  CC(C)(C)CC(O)(Cn1cncn1)C1=NOC(COc2ccc(F)cc2)C1 (single isomer, unassigned) [Compound 245]  Test E disease control rating             %                2
3  CC(C)(C)C(O)(Cn1cncn1)C1=NOC(COc2ccc(Cl)cc2)C1 (single isomer, unassigned) [Compound 243]  Test E disease control rating             %                0

We next turn to a different compound, shown below.
Provide Test E disease control rating, recorded with Zymoseptoria tritici, of CC(C)(C)C(O)(Cn1cncn1)C1=NOC(COc2ccc(Cl)c(Cl)c2)C1 (single isomer, unassigned) [Compound 258]
0

* * *

- Test system: Erysiphe graminis f sp. tritici
- ASSAY: Test G: wheat powdery mildew, preventive spray on wheat seedlings
- PARTICULARS: 10 ppm; wheat powdery mildew; 100 = 100% disease control, 0 = no control
Simple rule here: Test G rating (% disease control) less than 90% is Satisfied, otherwise Not satisfied.

Example entries and their recorded answers appear below.
> print(dat)
                                   molecule                    target.system  assigned.class
1  OC(Cn1cncn1)(C1=NOC(Cn2cc(Br)cn2)C1)c1ccc(Cl)cc1 (single isomer, unassigned) [Compound 37]  Erysiphe graminis f sp. tritici   Not satisfied
2  OC(Cn1cncn1)(C1=NOC(c2ccc(Cl)cc2)C1)C1CCCCC1 (single isomer, unassigned) [Compound 196]  Erysiphe graminis f sp. tritici   Not satisfied

Take the molecule OC(Cn1cncn1)(C1=NOC(COC2CCCCC2)C1)c1ccc(Cl)cc1 (single isomer, unassigned) [Compound 90] and say whether its Test G rating (% disease control) is less than 90%.
Satisfied

Please check: Test G rating (% disease control) for OC(Cn1cncn1)(C1=NOC(COc2ccc(Cl)nc2)C1)c1ccc(Cl)cc1 (single isomer, unassigned) [Compound 102] , strictly under 90% or not?
Satisfied

Field: below-cutoff. Rule: recorded Test G rating (% disease control) strictly less than 90%. Subject: CC(C)(C)C(O)(Cn1cncn1)C1=NOC(COc2ccc(F)cc2)C1 (single isomer, unassigned) [Compound 79]
Not satisfied

Quick check: Test G rating (% disease control) of CC(C)(C)C(O)(Cn1cncn1)C1=NOC(COc2ccc(C(F)(F)F)cc2)C1 (single isomer, unassigned) [Compound 81] under 90%?
Not satisfied

Would you kindly verify if Test G rating (% disease control) of CC(C)(C)C(O)(Cn1cncn1)C1=NOC(COc2ccc3c(c2)OCO3)C1 (single isomer, unassigned) [Compound 46] is strictly less than 90%?
Satisfied

Criterion: Test G rating (% disease control) strictly below 90%. Is it met by CCC(C)(C)C(O)(Cn1cncn1)C1=NOC(COc2ccc(Cl)cc2)C1 (single isomer, unassigned) [Compound 186] ?
Not satisfied

Report whether reported Test G rating (% disease control) is lower than 90% (strictly) for OC(Cn1cncn1)(C1=NOC(c2ccc(Cl)cc2)C1)c1ccccc1F (single isomer, unassigned) [Compound 135]
Satisfied

Say whether its Test G rating (% disease control) is strictly beneath 90%. Entry: C=CCC(O)(Cn1cncn1)C1=NOC(c2ccc(Cl)cc2)C1 (single isomer, unassigned) [Compound 84]
Not satisfied
